Target: Sphingosine 1-phosphate receptor 3 (Homo sapiens, UniProt Q99500)
Sequence (Q99500 whole entry): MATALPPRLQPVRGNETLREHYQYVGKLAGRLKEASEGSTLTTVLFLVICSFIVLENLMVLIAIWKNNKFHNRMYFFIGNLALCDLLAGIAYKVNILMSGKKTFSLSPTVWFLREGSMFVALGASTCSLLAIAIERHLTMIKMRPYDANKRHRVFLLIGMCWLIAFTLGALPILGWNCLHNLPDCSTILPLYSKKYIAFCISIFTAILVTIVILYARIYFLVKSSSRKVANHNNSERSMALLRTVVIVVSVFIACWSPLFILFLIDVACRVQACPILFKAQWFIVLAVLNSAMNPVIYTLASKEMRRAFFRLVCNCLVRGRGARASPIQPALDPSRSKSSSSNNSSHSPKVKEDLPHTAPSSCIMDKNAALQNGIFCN
Test: Displacement of [33P]sphingosine-1-phosphate from human S1P3 receptor expressed in HEK293T cells after 60 mins by scintillation counting
RECORDED ENDPOINT: IC50 (nM)
Report only the number, with the unit nM understood.

Below, each entry is followed by its recorded IC50 result.
C[C@](N)(COP(=O)(O)O)c1nc(-c2ccc(OCc3ccc(-c4ccccc4)cc3)c(C(F)(F)F)c2)c[nH]1: 2000
C[C@](N)(COP(=O)(O)O)C(=O)Nc1ccc(OCCc2ccc(-c3ccccc3)cc2)c(C#N)c1: 2000
C[C@](N)(COP(=O)(O)O)C(=O)Nc1ccc(OCCc2ccc(-c3ccccc3)cc2)cc1C(F)(F)F: 700
C[C@](N)(COP(=O)(O)O)C(=O)Nc1ccc(OCCc2ccc(-c3ccccc3)cc2)c(C(F)(F)F)c1: 4500
C[C@](N)(COP(=O)(O)O)C(=O)Nc1ccc(OCCc2ccc(-c3ccccc3)cc2)c(Cl)c1: 285
C[C@](N)(COP(=O)(O)O)C(=O)Nc1ccc(OCCc2ccc(-c3ccccc3)cc2)c(Br)c1: 1000
CCCCCCCCCCCCC/C=C/[C@@H](O)[C@@H](N)COP(=O)(O)O: 0.92
C[C@](N)(COP(=O)(O)O)C(=O)Nc1ccc(C(=O)CCc2ccc(-c3ccccc3)cc2)cc1: 3800

Now for another entry.
response.value for `Cc1cc(NC(=O)[C@@](C)(N)COP(=O)(O)O)ccc1OCCc1ccc(-c2ccccc2)cc1` (field: IC50) = 3250
